Molecular target: PABP1(437–488) (Homo sapiens, UniProt P11940)
Sequence (P11940 437-488): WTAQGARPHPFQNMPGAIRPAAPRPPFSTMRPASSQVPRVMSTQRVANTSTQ
Assay: SPR binding to immobilized PABP1
Details: compounds injected at 50–10000 nM
Reported Property: Interaction with immobilized PABP1(437–488) (in words)

Molecule: CCOC(=O)c1cc2cc(NC(=O)CNC(=O)Nc3ccc(C)cc3)ccc2[nH]1
Experimental Result: no interaction
//
Molecule: O=C(Nc1ccc2c(O)cc(S(=O)(=O)O)cc2c1)Nc1ccc2c(O)cc(S(=O)(=O)O)cc2c1 [AMI-1, reference compound]
Experimental Result: barely perceptible
//
Molecule: CCOC(=O)c1cc2cc(NC(=O)CNC(=O)Nc3ccc(C#N)cc3)ccc2[nH]1
Experimental Result: no interaction
//
Molecule: COC(=O)c1c[nH]c2ccc(NC(=O)CNC(=O)Nc3ccc(OC)cc3)cc12
Experimental Result: no interaction
//
Molecule: O=c1oc2c(O)c(O)cc3c(=O)oc4c(O)c(O)cc1c4c23 [ellagic acid, reference compound]
Experimental Result: barely perceptible

Per the records, this molecule ( CCOC(=O)c1cc2cc(NC(=O)CNC(=O)Nc3ccc([N+](=O)[O-])cc3)ccc2[nH]1 ) has Interaction with immobilized PABP1(437–488) (in words) equal to no interaction

====

Target: CARM1 (Mus musculus, UniProt Q9WVG6)
Sequence (Q9WVG6 whole entry): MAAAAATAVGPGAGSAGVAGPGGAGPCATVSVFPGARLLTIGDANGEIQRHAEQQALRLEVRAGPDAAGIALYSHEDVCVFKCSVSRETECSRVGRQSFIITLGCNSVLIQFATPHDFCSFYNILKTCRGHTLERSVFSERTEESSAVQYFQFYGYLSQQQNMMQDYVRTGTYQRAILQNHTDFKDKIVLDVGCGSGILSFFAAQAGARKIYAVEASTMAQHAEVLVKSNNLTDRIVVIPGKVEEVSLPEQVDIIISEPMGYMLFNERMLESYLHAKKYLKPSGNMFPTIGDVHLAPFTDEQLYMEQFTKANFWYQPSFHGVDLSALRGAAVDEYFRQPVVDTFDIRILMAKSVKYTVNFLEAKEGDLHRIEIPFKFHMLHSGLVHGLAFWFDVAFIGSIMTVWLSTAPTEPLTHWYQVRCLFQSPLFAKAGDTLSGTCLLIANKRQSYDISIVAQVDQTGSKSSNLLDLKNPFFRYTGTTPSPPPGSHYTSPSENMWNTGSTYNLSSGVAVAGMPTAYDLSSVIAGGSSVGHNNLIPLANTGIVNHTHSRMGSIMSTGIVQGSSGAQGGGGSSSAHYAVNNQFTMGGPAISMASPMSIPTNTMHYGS
Experiment: SPR binding to immobilized full length GST-tagged CARM1
Details: 4 µM compound, 200 µM SAH
Reported Property: Effect on affinity of substrate (H3 or PABP1) for CARM1/SAH complex

Compound: CCOC(=O)c1cc2cc(NC(=O)CNC(=O)Nc3ccc(C#N)cc3)ccc2[nH]1 [3g]
Experimental Result: affects the affinity

Compound: CCOC(=O)c1cc2cc(NC(=O)CNC(=O)Nc3ccc([N+](=O)[O-])cc3)ccc2[nH]1 [1k]
Experimental Result: affects the affinity

Where these numbers come from: paper PMC3508294
